- TEST PROTOCOL: Quantitative highthroughput screen to assess conditional lethalithy of P12 Ichikawa cells grown in RPMI1640 with dialyzed fetal bovine serum (RPMI+ds) (AID 1963880); note: nearly all actives have a fitted effect of over 35% in size;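 for viability: 100% = DMSO wells and 0% = empty wells on each plate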
- CONDITION CONTEXT: ATP luminescence, 48 h; P12-Ichikawa viability; series mostly up to 45.8 µM
Inconclusive results are not listed. The source made the active and inactive calls. Calls come from the whole dose curve; as a rule, active = well fitted cell-killing curve with a large enough effect; inconclusive = small, poorly fitted or top-dose-only effect; inactive = flat fitted curve, though single readings scatter.
Could you please pick one outcome from this set? YES for active, NO for inactive

Kindly provide the recorded test outcome for the following compound: CC(C)c1cnn2c(NCc3ccccc3)cc(NCCCCCCN)nc12
NO

Kindly provide the recorded test outcome for the following compound: COc1ccc(-c2ccc3c(N4CCOCC4)nc(N4C[C@@H](C)O[C@@H](C)C4)nc3n2)cc1CO
YES

Kindly provide the recorded test outcome for the following compound: O=C(O)C=Cc1ccc(Cn2ccnc2)cc1
NO

Kindly provide the recorded test outcome for the following compound: Cn1cc(CNCC2CCN(c3ncc(C(=O)NO)cn3)CC2)c2ccccc21
YES

Kindly provide the recorded test outcome for the following compound: O=C(O)c1cccc(-c2noc(-c3ccccc3F)n2)c1
NO

Kindly provide the recorded test outcome for the following compound: O=NN(CCCl)C(=O)NC1CCCCC1
NO

Kindly provide the recorded test outcome for the following compound: COc1cc2c(cc1OC)[C@@H]1Cc3ccc(OC)c(OC)c3CN1CC2
NO

Kindly provide the recorded test outcome for the following compound: Cn1cnc(=N)c2[nH]cnc21
YES

Kindly provide the recorded test outcome for the following compound: CC=C1C2C=C(C)CC1(N)c1ccc(=O)[nH]c1C2 (configuration not stated)
NO

Kindly provide the recorded test outcome for the following compound: CCc1cccc2c3c([nH]c12)C(CC)(CC(=O)O)OCC3 (configuration not stated)
NO

Kindly provide the recorded test outcome for the following compound: CC(C)(C)COc1ccc(-n2cc(C(=O)O)cn2)cc1C#N
NO

Kindly provide the recorded test outcome for the following compound: COc1cc2c(Nc3ccc(Cl)c(Cl)c3F)ncnc2cc1OCC1C[C@@H]2CN(C)C[C@@H]2C1 (some centres not stated)
YES

----------
- TEST PROTOCOL: Viability qHTS for spleen associated tyrosine kinase inhibitor (SYKi) drug resistant MV4-11 cells (AID 1963824); note: nearly all actives have a fitted effect of over 35% in size
- CONDITION CONTEXT: SYKi-resistant MV4-11 viability, CellTiter-Glo, 72 h; series mostly up to 45 µM
Inconclusive results are not listed. Activity calls are given as the source filed them. Calls come from the whole dose curve; as a rule, active = well fitted cell-killing curve with a large enough effect; inconclusive = small, poorly fitted or top-dose-only effect, or effect the other way; inactive = no such curve, though single readings can be large or run the other way.
Could you please pick one outcome from this set? active, inactive

Kindly provide the recorded test outcome for the following compound: COC(=O)c1ccc2c(c1)nc(NC(=O)c1ccccc1)n2CCCc1ccccc1
inactive

Kindly provide the recorded test outcome for the following compound: CC(O)C1NC(=O)C2CCCN2C1=O (stereo unspecified)
inactive

Kindly provide the recorded test outcome for the following compound: COc1cc(NS(C)(=O)=O)ccc1Nc1c2ccccc2nc2ccccc12
active

Kindly provide the recorded test outcome for the following compound: CC1OC(OC2C(O)COC(O[C@@H]3[C@@H](O)[C@@H](O)[C@H](OC4C(OC(=O)[C@]56CCC(C)(C)CC5C5=CCC7[C@@]8(C)C[C@H](O)[C@H](OC9OC(CO)C(O)C(O)C9O)[C@@](C)(CO)C8[C@H](O)C[C@@]7(C)[C@]5(C)CC6)OCC(O)C4O)O[C@H]3C)C2O)C(O)C(O)C1O (stereo partly specified)
active

Kindly provide the recorded test outcome for the following compound: CC(=O)Oc1ccc(C2(c3ccc(OC(C)=O)cc3)Oc3ccccc3NC2=O)cc1
active

Kindly provide the recorded test outcome for the following compound: CN(C)c1ccc(C(=C2C=CC(=[N+](C)C)C=C2)c2ccc(N(C)C)cc2)cc1
active

----------
- TEST PROTOCOL: Cellular viability qHTS for adrenocortical cancer (ACC) cell line NCI-H295R (AID 1963990); note: nearly all actives have a fitted effect of over 60% in size
- CONDITION CONTEXT: CellTiter-Glo ATP luminescence, 48 h; series mostly up to 46.1 µM
Results filed as inconclusive are left out. The source made the active and inactive calls. Calls come from the whole dose curve; as a rule, active = well fitted cell-killing curve with a large enough effect; inconclusive = small, poorly fitted or top-dose-only effect; inactive = flat fitted curve, though single readings scatter.
Could you please pick one outcome from this set? class 1 = active, class 0 = inactive

Kindly provide the recorded test outcome for the following molecule: C/C=C/C(=O)N(CC)c1ccccc1C
class 0

Kindly provide the recorded test outcome for the following molecule: C[C@@H]1CCC[C@H](C)N1
class 0

Kindly provide the recorded test outcome for the following molecule: CCCCCCCCCCCCCCCC(=O)NCCO
class 0

Kindly provide the recorded test outcome for the following molecule: Cc1nc(-c2ccc(Cl)cc2)oc1COC(C)(C)C(=O)O
class 0

Kindly provide the recorded test outcome for the following molecule: CC#Cc1cncc(-c2ccc3c(c2)[C@@]2(N=C(C)C(N)=N2)C2(CCC(OC)CC2)C3)c1 (stereo not given in full)
class 0

Kindly provide the recorded test outcome for the following molecule: CNC(=O)[C@@H](NC(=O)[C@H](CC(C)C)[C@H](O)C(=O)NO)C(C)(C)C
class 0

Kindly provide the recorded test outcome for the following molecule: CC(=O)OCC(COC(C)=O)OC(C)=O
class 0

Kindly provide the recorded test outcome for the following molecule: O=c1[nH]c(=O)c2ccccc2o1
class 0

Kindly provide the recorded test outcome for the following molecule: O=C(O)c1ccc[n+]([O-])c1
class 0

Kindly provide the recorded test outcome for the following molecule: O=C(O)Cc1csc(-c2ccc(Cl)cc2)n1
class 0

Kindly provide the recorded test outcome for the following molecule: C[C@H](NC(CCc1ccccc1)C(=O)O)C(=O)N1CCC[C@H]1C(=O)O (stereo not given in full)
class 0

Kindly provide the recorded test outcome for the following molecule: CCN(CC)CCOc1ccc(C(O)(Cc2ccc(Cl)cc2)c2ccc(C)cc2)cc1 (stereo not given)
class 1

Kindly provide the recorded test outcome for the following molecule: NC(CS)C(=O)O (stereo not given)
class 0

Kindly provide the recorded test outcome for the following molecule: O=C(O)CC(O)C(=O)O (stereo not given)
class 0

Kindly provide the recorded test outcome for the following molecule: COc1cc(OC)c(C(=O)CCCN2CCCC2)c(OC)c1
class 0

Kindly provide the recorded test outcome for the following molecule: Nc1c2ccccc2nc2ccccc12
class 1

Kindly provide the recorded test outcome for the following molecule: CC1(C)OC(=O)NC1=O
class 0

Kindly provide the recorded test outcome for the following molecule: CCOC(=O)OC(C)OC1=C(C(=O)Nc2ccccn2)N(C)S(=O)(=O)c2ccccc21 (stereo not given)
class 0

Kindly provide the recorded test outcome for the following molecule: CC(C)C[C@H](NC(=O)c1cc2ccccc2s1)C(=O)N1CCN(C(=O)[C@H](CO)NS(=O)(=O)c2ccc(Cl)cc2Cl)CC1
class 1

Kindly provide the recorded test outcome for the following molecule: O=C(Nc1cccc(Cl)c1)Nc1ncc(CCNc2ncnc3ccsc23)s1
class 1

Kindly provide the recorded test outcome for the following molecule: CC1(C)CCC(CN2CCN(c3ccc(C(=O)NS(=O)(=O)c4ccc(NCC5CCOCC5)c([N+](=O)[O-])c4)c(Oc4cnc5[nH]ccc5c4)c3)CC2)=C(c2ccc(Cl)cc2)C1
class 0

Kindly provide the recorded test outcome for the following molecule: CCn1nc(C(=O)O)c(=O)c2cc3c(cc21)OCO3
class 0

Kindly provide the recorded test outcome for the following molecule: CCCCCC(N)=O
class 0

Kindly provide the recorded test outcome for the following molecule: CONC(=O)Nc1ccc(-c2sc3c(c2CN(C)Cc2ccccc2)c(=O)n(-c2ccccc2)c(=O)n3Cc2c(F)cccc2F)cc1
class 0

Kindly provide the recorded test outcome for the following molecule: COc1cc(OC2CCN(C)CC2)ccc1Nc1ncc2c(n1)n(C1CCCC1)c(=O)n2C
class 1

----------
- TEST PROTOCOL: Viability qHTS for spleen associated tyrosine kinase inhibitor (SYKi) drug resistant MV4-11 cells (AID 1963824); note: nearly all actives have a fitted effect of over 35% in size
- CONDITION CONTEXT: SYKi-resistant MV4-11 viability, CellTiter-Glo, 72 h; series mostly up to 45 µM
Results filed as inconclusive are left out. Calls of active or inactive are those of the source. The call rests on the fitted dose curve; in most records, active means well fitted cell-killing curve with a large enough effect; inconclusive means small, poorly fitted or top-dose-only effect, or effect the other way; inactive means no such curve, though single readings can be large or run the other way.
Could you please pick one outcome from this set? active, inactive

Kindly provide the recorded test outcome for the following compound: C/C1=C\[C@H]2OC(=O)[C@@H](C)[C@@H]2CC/C(C(=O)O)=C/CC1
inactive

Kindly provide the recorded test outcome for the following compound: Clc1ccc(C(c2ccc(Cl)cc2)n2cc[n+](CC(OCc3ccc(Cl)cc3Cl)c3ccc(Cl)cc3Cl)c2)cc1 (centres undefined)
active

Kindly provide the recorded test outcome for the following compound: CC(=O)C1=CCC2C3CC=C4CC(O)CC(O)C4(C)C3C(O)CC12C (centres undefined)
active

Kindly provide the recorded test outcome for the following compound: CC1(C(=O)O)CCCC2(C)C1CCC13CC(CCC21)C1(CO)OC31 (centres undefined)
inactive

Kindly provide the recorded test outcome for the following compound: CC[C@@H](C)Nc1cc(C(=O)NC2CC3CCC(C2)N3c2ccc(C(=O)C3CC3)cn2)c(C)cc1C(N)=O (some centres undefined)
active

Kindly provide the recorded test outcome for the following compound: O=c1[nH]cnc2[nH]ncc12
inactive

Kindly provide the recorded test outcome for the following compound: Cc1ccc(NC(=O)c2ccc3c(c2)OCCO3)cc1NC(=O)c1ccc2nc(OCCN3CCCC3)ccc2c1
active

Kindly provide the recorded test outcome for the following compound: COc1cnc(-c2ccc(Cn3c(CC(C)(C)C(=O)O)c(SC(C)(C)C)c4cc(OC[C@@H]5Cc6ccccc6N5C(C)=O)ccc43)cc2)nc1
active

Kindly provide the recorded test outcome for the following compound: OCc1ccccn1
inactive
